test system: S. aureus TOUR; experiment: agar-dilution MIC test; type: cell-based; settings: S. aureus TOUR + 30% bovine serum
measurement_label: MIC (µg/mL)

- COC(=O)C1NC(=O)C2NC(=O)C(NC(=O)C3NC(=O)C4NC(=O)C(Cc5ccc(c(Cl)c5)Oc5cc3cc(c5O)Oc3ccc(cc3Cl)C2O[C@@H]2O[C@H](CO)[C@@H](O)[C@H](O)[C@H]2NC(C)=O)NC(=O)C(N)c2ccc(O)c(c2)Oc2cc(O)cc4c2)c2ccc(O)c(c2)-c2c(O)cc(O)cc21.Cl (stereo partly drawn) [Example 1]: 0.25
- CC(=O)N[C@H]1[C@H](OC2c3ccc(c(Cl)c3)Oc3cc4cc(c3O)Oc3ccc(cc3Cl)CC3NC(=O)C(N)c5ccc(O)c(c5)Oc5cc(O)cc(c5)C(NC3=O)C(=O)NC4C(=O)NC3C(=O)NC2C(=O)NC(C(=O)OCCCl)c2cc(O)cc(O)c2-c2cc3ccc2O)O[C@H](CO)[C@@H](O)[C@@H]1O.Cl (stereo partly drawn) [Example 4]: 0.5
- CC(=O)N[C@H]1[C@H](OC2c3ccc(c(Cl)c3)Oc3cc4cc(c3O)Oc3ccc(cc3Cl)CC3NC(=O)C(N)c5ccc(O)c(c5)Oc5cc(O)cc(c5)C(NC3=O)C(=O)NC4C(=O)NC3C(=O)NC2C(=O)NC(C(=O)OCc2ccc(C)cc2)c2cc(O)cc(O)c2-c2cc3ccc2O)O[C@H](CO)[C@@H](O)[C@@H]1O (stereo partly drawn) [Example 10]: 4

Cited source: patent US4914187A
